Experiment: NCI Yeast Anticancer Drug Screen. Data for the sgs1 mgt1 strain (AID 161);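 further: 0% = growth of cultures given vehicle only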
Conditions: S. cerevisiae sgs1 mgt1 strain, at 50.0 µM, stronger effect = higher value
Compounds without any hit were thinned out: in the full panel of roughly 79,000, 15% have a hit. Where a SMILES comes first, the peptide text is derived from it. The star is where a group is joined. OSu = O=C1CCC(=O)N1O*; OBn = c1ccc(CO*)cc1; Bn = c1ccc(C*)cc1
quantity: growth inhibition (%)
Hi! Could you send only the number? It should be in %, unit omitted.

These recorded examples may help you get a feel for the data.
[
  {
    "compound": "COc1ccc(/C(Cl)=C(\\C=O)c2ccc(Cl)cc2)cc1",
    "result-unit": "%",
    "growth inhibition": 27.8
  },
  {
    "compound": "Cc1ccc(C(CN)(CCBr)c2ccc(C)cc2)cc1",
    "result-unit": "%",
    "growth inhibition": 99.7
  },
  {
    "compound": "O=C(O)C1CCCCC1.[Ag]",
    "result-unit": "%",
    "growth inhibition": 93.2
  }
]

Reported growth inhibition of "CCOC(=O)/C(=C\c1cccc(C(F)(F)F)c1)P(=O)(OCC)OCC" : 68.1

Reported growth inhibition of COC(=O)C1C(O)C(C)C(=O)C(C)/C=C\C=C(C)C(=O)Nc2c(C)c(OC(C)=O)c3c(c2O)C(=O)C(C)=C2OCOC(=C23)C(C)=CC(C)(O)C(O)C(C)C1O (configuration not stated) : 92.2

Reported growth inhibition of "O=C(C=P(c1ccccc1)(c1ccccc1)c1ccccc1)c1ccccc1-c1ccccc1C(=O)C=P(c1ccccc1)(c1ccccc1)c1ccccc1" : 90.5

Reported growth inhibition of "CN(CN(C)N=Nc1ccc(Cl)cc1)CN(C)N=Nc1ccc(Cl)cc1" : 4.7

Reported growth inhibition of "O=c1oc2c(-c3ccccc3)cccc2c(O)c1-c1ccccc1" : 58.9

Reported growth inhibition of "c1ccc2c(c1)C[N+]1(CCCCCCC1)C2" : 69.9

Reported growth inhibition of "CCOC(=O)c1[nH]cnc1/N=N/c1nc(O)c(C#N)[nH]1" : 6

Reported growth inhibition of "O=C(Nn1cc(F)c(=O)[nH]c1=O)C12CC3CC(CC(C3)C1)C2" : 91.4

Reported growth inhibition of "CN(C)c1ccc(C=Nc2ccc(OCCCCCCCCCCC(=O)O)cc2)cc1" : 76.7

Reported growth inhibition of CCOC(=O)N1c2ccc3ccccc3c2C=CC1C#N (configuration not stated) : 96.6

Reported growth inhibition of "COC(=O)c1cn(NS(=O)(=O)c2ccc(OC)cc2)cc1C(=O)OC" : 29.8

Reported growth inhibition of "CCCCc1c(O)c(N=NC(=O)C[n+]2ccccc2)c2ccccc2c1O" : 17.8

Reported growth inhibition of "C(#Cc1ccccc1)Sc1ccccc1" : 65.7

Reported growth inhibition of "Cc1ccc(Cc2nc(=S)[nH][nH]2)cc1" : -2.75

Reported growth inhibition of CC(C)CC(NC(=O)C(N)CCC(=O)OCc1ccccc1)C(=O)NC(COCc1ccccc1)C(=O)NC(Cc1ccccc1)C(=O)ON1C(=O)CCC1=O (configuration not stated) (H-E(OBn)LS(Bn)F-OSu; configuration not given here) : 83.1

Reported growth inhibition of COc1cc2c(c(C3C(=O)N(C)c4ccc(Br)cc43)c1OC)OCO2 (configuration not stated) : 11.3

Reported growth inhibition of "CCN(CC)CCNc1c(OC)cc(C)c2sc3ccccc3c(=O)c12" : 82.8
